Data provenance: ChEMBL document CHEMBL1156527

- experiment: Binding affinity to HIV1 N-trimer gp41 mimic IZN36 by surface plasmon resonance analysis
endpoint_name: Kd (µM)
Report the value in µM with no unit label.

Q: Report Kd for CC(C)C[C@@H](NC(=O)[C@@H](CC(C)C)NC(=O)[C@@H](CCC(=O)O)NC(=O)[C@@H](CS)NC(=O)[C@@H](C)NC(=O)CNC(=O)[C@@H](CCCCN)NC(=O)[C@H](N)CCCCN)C(=O)NCC(=O)N[C@H](Cc1c[nH]c2ccccc12)C(=O)N[C@H](CCC(=O)O)C(=O)N[C@H](Cc1c[nH]c2ccccc12)C(=O)N[C@H](C)C(=O)N[C@H](Cc1c[nH]c2ccccc12)C(=O)N[C@H](CC(C)C)C(=O)N[C@H](CS)C(=O)N[C@H](C)C(=O)N[C@H](C)C(=O)O please.
Ans: 7

====

- System: Human immunodeficiency virus 1
- experiment: Antiviral activity against HIV1 HXB2 in HOS-CD4-CXCR4 cells by viral infectivity assay
- Format: functional, organism-based
- experimental_context: Human immunodeficiency virus 1, HXB2
Some compounds, each annotated with its measured IC50.
Response body: numeric value in nM, unit text excluded.

Worked cases, answers included:
smiles_record | value_units | IC50
CC(C)C[C@@H](NC(=O)[C@@H](CC(C)C)NC(=O)[C@@H](CCC(=O)O)NC(=O)[C@@H](CS)NC(=O)[C@@H](C)NC(=O)CNC(=O)[C@@H](CCCCN)NC(=O)[C@H](N)CCCCN)C(=O)NCC(=O)N[C@H](Cc1c[nH]c2ccccc12)C(=O)N[C@H](CCC(=O)O)C(=O)N[C@H](Cc1c[nH]c2ccccc12)C(=O)N[C@H](C)C(=O)N[C@H](Cc1c[nH]c2ccccc12)C(=O)N[C@H](CC(C)C)C(=O)N[C@H](CS)C(=O)N[C@H](C)C(=O)N[C@H](C)C(=O)O | nM | 9500
CC(C)C[C@@H](NC(=O)[C@@H](Cc1c[nH]c2ccccc12)NC(=O)[C@@H](CCCNC(=N)N)NC(=O)[C@@H](Cc1c[nH]c2ccccc12)NC(=O)[C@@H](CCC(=O)O)NC(=O)[C@H]1CCCN1C(=O)[C@@H](CO)NC(=O)[C@@H](CCC(=O)O)NC(=O)[C@@H](CS)NC(=O)[C@@H](C)NC(=O)CNC(=O)[C@@H](CCCCN)NC(=O)[C@H](N)CCCCN)C(=O)N[C@H](CS)C(=O)N[C@H](C)C(=O)N[C@H](C)C(=O)O | nM | 2200
CC(C)C[C@@H](NC(=O)[C@@H](Cc1c[nH]c2ccccc12)NC(=O)[C@@H](CCC(N)=O)NC(=O)[C@@H](Cc1c[nH]c2ccccc12)NC(=O)[C@@H](CCC(=O)O)NC(=O)[C@H]1CCCN1C(=O)[C@@H](Cc1ccc(O)cc1)NC(=O)[C@@H](CC(=O)O)NC(=O)[C@@H](CS)NC(=O)[C@@H](C)NC(=O)CNC(=O)[C@H](N)CCCCN)C(=O)N[C@H](CS)C(=O)N[C@H](C)C(=O)N[C@H](C)C(=O)O | nM | 620

Q: // IC50 lookup, key: CC(C)C[C@@H](NC(=O)[C@@H](Cc1c[nH]c2ccccc12)NC(=O)[C@@H](CCCNC(=N)N)NC(=O)[C@@H](Cc1c[nH]c2ccccc12)NC(=O)[C@@H](CCC(=O)O)NC(=O)[C@H]1CCCN1C(=O)[C@@H](Cc1ccc(O)cc1)NC(=O)[C@@H](CC(=O)O)NC(=O)[C@@H](CS)NC(=O)[C@@H](C)NC(=O)CNC(=O)[C@H](N)CCCCN)C(=O)N[C@H](CS)C(=O)N[C@H](C)C(=O)N[C@H](C)C(=O)O
Ans: 1300

====

- Tested on: Human immunodeficiency virus 1
- experiment: Antiviral activity against HIV1 HXB2 in HOS-CD4-CXCR4 cells by viral infectivity assay
- Format: functional, organism-based
- experimental_context: Human immunodeficiency virus 1, HXB2
Listing: pIC50 of selected compounds
pIC50 (log units): -log10 of the concentration in mol/L.

Q: Which pIC50 value belongs to CC(C)C[C@@H](NC(=O)[C@@H](Cc1c[nH]c2ccccc12)NC(=O)[C@@H](CCCNC(=N)N)NC(=O)[C@@H](Cc1c[nH]c2ccccc12)NC(=O)[C@@H](CCC(=O)O)NC(=O)[C@H]1CCCN1C(=O)[C@@H](Cc1ccc(O)cc1)NC(=O)[C@@H](CC(=O)O)NC(=O)[C@@H](CS)NC(=O)[C@@H](C)NC(=O)CNC(=O)[C@@H](CCCCN)NC(=O)[C@H](N)CCCCN)C(=O)N[C@H](CS)C(=O)N[C@H](C)C(=O)N[C@H](C)C(=O)O ?
Ans: 5.59

Q: Continue with CC(C)C[C@@H](NC(=O)[C@@H](Cc1c[nH]c2ccccc12)NC(=O)[C@@H](CCC(N)=O)NC(=O)[C@@H](Cc1c[nH]c2ccccc12)NC(=O)[C@@H](CCC(=O)O)NC(=O)[C@@H](CCCCN)NC(=O)[C@@H](Cc1ccc(O)cc1)NC(=O)[C@@H](CC(=O)O)NC(=O)[C@@H](CS)NC(=O)[C@@H](C)NC(=O)CNC(=O)[C@H](N)CCCCN)C(=O)N[C@H](CS)C(=O)N[C@H](C)C(=O)N[C@H](C)C(=O)O
Ans: 5.77
